Test system: Calu-3
Test: drug sensitivity score (DSS) for viability; higher = more toxic; extreme values may be limits of the assay
Conditions: 72 h
Assign drug sensitivity score to each entry below.
# answer = number (no unit)

Lookup: For the molecule shown here, CCC(NC(C)C)C(O)c1ccc(O)c2[nH]c(=O)ccc12 (centres undefined) [procaterol] , give the reported drug sensitivity score.
Found: 0

Lookup: For the molecule shown here, O=C(CCCc1ccc(-c2ccccc2F)cc1)Nc1ccc(O)cc1 [CMPD-1] , give the reported drug sensitivity score.
Found: 0.8

Lookup: For the molecule shown here, CCOCOC[C@H](C[C@H](C)C(=O)NO)NC(=O)c1ccc(Oc2ccccc2)cc1 [ONO-4817] , give the reported drug sensitivity score.
Found: 0

Lookup: For the molecule shown here, O=C(Nc1cccc(Br)c1)c1cccc(S(=O)(=O)N2CCCCCC2)c1 [AK-7] , give the reported drug sensitivity score.
Found: 0.6

Lookup: For the molecule shown here, N=C(N)Nc1ccc(Cl)cc1 [4-chlorophenylguanidine] , give the reported drug sensitivity score.
Found: 0

Lookup: For the molecule shown here, Nc1nc(F)nc2c1ncn2[C@@H]1O[C@H](COP(=O)(O)O)[C@@H](O)[C@@H]1O [fludarabine-phosphate] , give the reported drug sensitivity score.
Found: 0

Lookup: For the molecule shown here, CC(=O)Nc1c(I)c(C(=O)O)c(I)c(N(C)C(C)=O)c1I [metrizoic-acid] , give the reported drug sensitivity score.
Found: 0

Lookup: For the molecule shown here, CC(C)(C)n1nc(-c2ccc(Cl)cc2)c2c(N)ncnc21 [PP-2] , give the reported drug sensitivity score.
Found: 5.4

Lookup: For the molecule shown here, CC(=O)[O-].CC(=O)[O-].N.NC1CCCCC1.[Cl-].[Cl-].[Pt+4] [satraplatin] , give the reported drug sensitivity score.
Found: 2.2

Lookup: For the molecule shown here, CC(C)c1c2cc(-c3ccnc(N[C@H]4CC[C@H](NC5CCOCC5)CC4)n3)ccc2nn1C , give the reported drug sensitivity score.
Found: 7.7

Lookup: For the molecule shown here, COc1cc2ncnc(Nc3cccc(Cl)c3)c2cc1OC [tyrphostin-AG-1478] , give the reported drug sensitivity score.
Found: 11.1

Lookup: For the molecule shown here, CCCCCCCC/C=C\CCCCCCCC(=O)NCCO [oleoylethanolamide] , give the reported drug sensitivity score.
Found: 0

Lookup: For the molecule shown here, CN(C(=O)Cc1ccc(Cl)c(Cl)c1)[C@H](CN1CCCC1)c1ccccc1 , give the reported drug sensitivity score.
Found: 4.3

Lookup: For the molecule shown here, CCS(=O)(=O)N1CCN(c2ccc(Nc3ncc(C(N)=O)c(NC4CC4)n3)cc2)CC1 , give the reported drug sensitivity score.
Found: 0

----------
Assign cell viability to each entry below.
System: Vero E6
Test: cell viability relative to DMSO; higher = less toxic
Conditions: 72 h; 1 nM
Please respond with the number in % and leave the unit unwritten.

Lookup: For the compound shown here, COc1ccc(-c2nc(-c3ccc(-c4cccc(Cl)c4)o3)[nH]c2-c2ccc(OC)cc2)cc1 , give the reported cell viability.
Found: 109

Lookup: For the compound shown here, O=C(Nc1ccccc1F)N[C@H]1N=C(c2ccccc2)c2ccccc2NC1=O , give the reported cell viability.
Found: 95.1

Lookup: For the compound shown here, O=C(O)CCCO [SODIUM OXYBATE] , give the reported cell viability.
Found: 93.6

Lookup: For the compound shown here, CCC1(C)CC(=O)NC(=O)C1 [bemegride] , give the reported cell viability.
Found: 98.2

Lookup: For the compound shown here, CC(=O)NCCc1c(Cc2ccccc2)[nH]c2ccccc12 , give the reported cell viability.
Found: 95.9

Lookup: For the compound shown here, O=C(Nc1ccc2[nH]ccc2c1)c1ccccc1 , give the reported cell viability.
Found: 92.3

Lookup: For the compound shown here, CCc1c(C(=O)NCCc2ccc(N3CCCCC3)cc2)[nH]c2ccc(Cl)cc12 , give the reported cell viability.
Found: 97.6
